- Assay target: Human Siglec-9-Fc (recombinant human Siglec-9 extracellular domain Q18-G348 fused to human IgG1 Fc) (human)
- Sequence (chain, as listed by the source limits assumed): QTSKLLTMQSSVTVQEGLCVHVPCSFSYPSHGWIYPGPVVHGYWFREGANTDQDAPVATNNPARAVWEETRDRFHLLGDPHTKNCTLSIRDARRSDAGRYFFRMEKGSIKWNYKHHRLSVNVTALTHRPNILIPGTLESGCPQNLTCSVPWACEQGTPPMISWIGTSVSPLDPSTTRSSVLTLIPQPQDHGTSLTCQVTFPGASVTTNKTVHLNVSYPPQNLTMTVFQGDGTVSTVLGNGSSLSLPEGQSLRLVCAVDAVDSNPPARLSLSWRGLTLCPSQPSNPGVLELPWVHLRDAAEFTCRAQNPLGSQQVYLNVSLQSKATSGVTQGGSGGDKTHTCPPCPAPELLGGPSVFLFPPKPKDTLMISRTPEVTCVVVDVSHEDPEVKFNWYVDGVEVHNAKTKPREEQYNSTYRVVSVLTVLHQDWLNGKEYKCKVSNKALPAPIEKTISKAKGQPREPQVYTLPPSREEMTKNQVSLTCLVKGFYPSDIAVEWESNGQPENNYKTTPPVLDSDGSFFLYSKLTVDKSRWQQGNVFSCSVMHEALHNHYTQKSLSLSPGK
- Method summary: BLI binning, hSiglec-9-Fc on AHC sensor; competitor bound first (row): 12P18

>  <Binder>
9C15 (antibody, V domains shown) VH: QVQLQQPGAELVKPGASVKMSCKASGYTFTSYWITWLNQRPGQGLEWIGDIYPGSGGTNYNERFKSKATLTVDTSSSTAYMQLSSLTSEDSAVYYCARSGGWAMDYWGQGTSVTVSS VL: DIQMTQTTSSLSASLGDRVTISCRASQDISNYLNWYQQKPDGTVKLLIYYKSGLHSGVPSRFSGSGSGTDYSLTISNLEQEDIATYFCQQGNTLPFTFGGGTKLEIK

>  <maximum binding nm shift (nm)>
0.003

$$$$
